Quick reference for growth among some compounds
tested on: U251 CNS; experiment: NCI-60 one-dose screen, 48 h (100 = growth as untreated, 0 = no growth, -100 = all killed); conditions: 10 µM unless noted
This is part of a sample that, as a whole, favours compounds with a hit. Of some 83,000 tested, about 20% had one in any assay.
Reported Property: growth (%)

[[record]]
compound = "COC(=S)SCN(CSC(=S)OC)c1ccc(Cl)cc1"
unit_string = "%"
quantitative_readout = 90.9

[[record]]
compound = "Cc1ccc(Nc2nc(N)nc(Nc3ccc4ccccc4c3)n2)cc1"
unit_string = "%"
quantitative_readout = 17.7

[[record]]
compound = "Cc1nc2nc(N)nc(N)c2nc1C"
unit_string = "%"
quantitative_readout = 99.5

[[record]]
compound = "COc1cc(NCCCCN=C(N)NC(N)=NC(C)C)c2ncccc2c1"
unit_string = "%"
quantitative_readout = 50

[[record]]
compound = "O=C(Nc1cccc2[nH]c(C(F)(F)F)nc12)c1ccc(Br)cc1F"
unit_string = "%"
quantitative_readout = 18.9

[[record]]
compound = "CC(C)[C@H]1COC(=O)N1[C@@H]1C(=O)N([C@@H](CCC(=O)N2CCN(C3CCCC3)CC2)C(=O)N[C@@H]2CCCc3ccccc32)[C@@H]1/C=C/c1cccc(Br)c1"
unit_string = "%"
quantitative_readout = 27.5

[[record]]
compound = "CCCCNC(=O)NS(=O)(=O)c1ccc(N2N=C(c3cc(C)ccc3C)CC2c2cc(OC)c(OC)c(OC)c2)cc1 (stereo not drawn)"
unit_string = "%"
quantitative_readout = 51.3

[[record]]
compound = "COc1ccc(C(=O)c2sc3nc(-c4ccccc4OC)ccc3c2N)cc1OC"
unit_string = "%"
quantitative_readout = 63.2


====

Tested on: A498 renal
Test: NCI-60 one-dose screen, 48 h
Conditions: 10 µM unless noted
Procedure: Growth inhibition of the A498 human tumor cell line is measured as a screen for anti-cancer activity. Cells are grown in 96 well plates and exposed to the test compound for 48 hours. Compounds are tested at a single concentration, which is 10^-5 M for most compounds. The reported endpoint is percent growth (GI% or GIPRCNT), where numbers from 0 - 100% represent growth inhibition, and numbers from -100% - 0 represent cell death. For example, a value of 40 represents 60% growth inhibition. […]
The panel holds about 83,000 compounds, 20% with a hit somewhere; the sample as a whole holds those more often. Calls of active or inactive are those of the source. How the source made its calls: active means growth percent below 10; inactive means the rest.
Outcome codes: 1 for active, -1 for inactive

[[record]]
compound = "CC1CN(C(C)C)C(=S)N(c2ccccc2)C1=O (stereo not given)"
class_name = -1

[[record]]
compound = "CCCCN(CCCC)CCC(C)(O)c1cc2ccccc2c2ccccc12 (stereo not given)"
class_name = -1

[[record]]
compound = "COc1cnc2c(c1)C(=O)c1c-2n(CCCBr)c(=O)c2cc([N+](=O)[O-])ccc12"
class_name = 1

[[record]]
compound = "COc1ccc(CN(c2ccc(C)cc2)C2OC(=O)c3ccccc32)cc1OC (stereo not given)"
class_name = -1

[[record]]
compound = "CC(=O)C1=C(O)C=C2Oc3c(C(=O)/C=C/c4cc(C(F)(F)F)cc(C(F)(F)F)c4)c(O)c(C)c(O)c3[C@]2(C)C1=O"
class_name = 1

[[record]]
compound = "CC(=O)Nc1ccc2c(c1)c(NC(C)=O)nn2C(=O)Nc1ccc(Cc2ccccc2)cc1"
class_name = -1

[[record]]
compound = "CCCCOc1ccc(NC(=O)n2nc(NC(C)=O)c3cc(NC(C)=O)ccc32)cc1"
class_name = -1

[[record]]
compound = "O=C1/C(=C/c2ccc(Cl)c(Cl)c2)CN(C(=O)CCN2CCC(=NO)CC2)C/C1=C\\c1ccc(Cl)c(Cl)c1"
class_name = 1

[[record]]
compound = "Cc1cc(Cl)ccc1Nc1nc(C(F)(F)F)ccc1C(=O)N/N=C/c1ccc(F)cc1"
class_name = 1

[[record]]
compound = "CC/C=C\\C[C@H](F)C/C=C1/C(=O)C=C[C@@H]1C/C=C\\CCCC(=O)O"
class_name = -1


====

test system: RXF 393 renal; assay: NCI-60 one-dose screen, 48 h; details: 10 µM unless noted
Compounds without any hit were thinned out: in the full panel of roughly 83,000, 20% have a hit. Activity calls are given as the source filed them. The calls were made as follows: active = growth percent below 10; inactive = the rest.
Outcome codes: TRUE (active), FALSE (inactive)

[[record]]
molecule = "COc1cc(-c2cc(-c3nc4ccc(Cl)cc4[nH]3)[nH]n2)cc(OC)c1OC"
class_name = "FALSE"

[[record]]
molecule = "COCCCNc1nc(NC(=O)c2ccc(F)cc2C)cc(-c2cccnc2)n1"
class_name = "FALSE"

[[record]]
molecule = "CC/C=C\\C[C@H](O)C/C=C1/C(=O)C=C[C@@H]1C/C=C\\CCCC(=O)OC(C)C"
class_name = "TRUE"

[[record]]
molecule = "Nc1cc2ccncc2c2ccccc12"
class_name = "FALSE"

[[record]]
molecule = "COc1cc(C2CC(=O)c3c(C)nn(-c4nc5ccccc5[nH]4)c3C2)cc(OC)c1OC (stereo unspecified)"
class_name = "FALSE"

[[record]]
molecule = "CCC(=O)OCc1cccc(OC)c1"
class_name = "FALSE"

[[record]]
molecule = "O=C1CCc2c(sc3[nH]c(=S)n(Cc4ccccc4)c(=O)c23)C1"
class_name = "FALSE"

[[record]]
molecule = "CC(=O)Oc1ccc(Nc2c3ccccc3nc3ccccc23)cc1"
class_name = "TRUE"

[[record]]
molecule = "N=c1c2ccccc2nc2n1CCCCC2"
class_name = "FALSE"

[[record]]
molecule = "CC[C@@H](C)OC(=O)c1nn(C(C)=O)c2ccccc12"
class_name = "FALSE"

[[record]]
molecule = "O=C1C(Cl)=C(Cl)C(=O)c2c1nc1n2CCCC1"
class_name = "FALSE"


====

Test system: SK-MEL-5 melanoma
Experiment: NCI-60 one-dose screen, 48 h
Details: 10 µM unless noted
Description: Growth inhibition of the SK-MEL-5 human tumor cell line is measured as a screen for anti-cancer activity. Cells are grown in 96 well plates and exposed to the test compound for 48 hours. Compounds are tested at a single concentration, which is 10^-5 M for most compounds. The reported endpoint is percent growth (GI% or GIPRCNT), where numbers from 0 - 100% represent growth inhibition, and numbers from -100% - 0 represent cell death. For example, a value of 40 represents 60% growth inhibition. […]
The panel holds about 83,000 compounds, 20% with a hit somewhere; the sample as a whole holds those more often. The source made the active and inactive calls. How the source made its calls: active means growth percent below 10; inactive means the rest.
Outcome codes: 1.0 (active), 0.0 (inactive)

[[record]]
compound = "Brc1cccc(-c2cc(-c3ccc4c(c3)OCCO4)[nH]n2)c1"
class_name = 0.0

[[record]]
compound = "CCOC(=S)SCc1ccc(Cl)cc1"
class_name = 0.0

[[record]]
compound = "CSc1ncnc2c1ncn2C1CCCO1 (stereo not given)"
class_name = 0.0

[[record]]
compound = "CCCCCCCCCCCCCCCC(=O)OCC1OC(n2cnc3c(=S)nc(N)[nH]c32)C(OC(=O)CCCCCCCCCCCCCCC)C1OC(=O)CCCCCCCCCCCCCCC (stereo not given)"
class_name = 0.0

[[record]]
compound = "Cc1cc(Nc2nc(N3CCOCC3)nc3ccccc23)n[nH]1"
class_name = 0.0

[[record]]
compound = "O=S(=O)(NCCCNc1cc(-c2cn(-c3ccccc3)nc2-c2cccc(O)c2)ccn1)c1ccccc1"
class_name = 0.0

[[record]]
compound = "O=C(O)C(O)C(O)C(=O)O.[NH-]C1CCCCC1[NH-].[Pt+2] (stereo not given)"
class_name = 0.0

[[record]]
compound = "CC1=C(NCCN2CCCC2)C(=O)c2c(OCc3ccc(F)c(Cl)c3)cccc2C1=O"
class_name = 0.0

[[record]]
compound = "CC(=O)C1=C(O)C=C2Oc3c(C(=O)/C=C/c4c(Cl)cccc4Cl)c(O)c(C)c(O)c3[C@]2(C)C1=O"
class_name = 1.0

[[record]]
compound = "O=[N+]([O-])c1cccc(-c2nc3sccn3c2-c2ccnc(NCCNS(=O)(=O)c3ccc(C(F)(F)F)cc3)n2)c1"
class_name = 1.0

